Molecular target: T1, rat beta CGRP (SEQ ID NO: 83) (rat, not fully specified)
T1 construct: also called rat βCGRP; rat β-CGRP
T1 peptide: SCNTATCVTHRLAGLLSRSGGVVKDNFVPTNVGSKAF
Test: SPR, 37 C, mutein captured, CGRP analyte
property-name: kon
Include the unit after the number when you answer.

Q: Return value of kon for input lipocalin mutein SEQ ID NO: 24 (designed binder, biotinylated by NHS chemistry for capture in SPR) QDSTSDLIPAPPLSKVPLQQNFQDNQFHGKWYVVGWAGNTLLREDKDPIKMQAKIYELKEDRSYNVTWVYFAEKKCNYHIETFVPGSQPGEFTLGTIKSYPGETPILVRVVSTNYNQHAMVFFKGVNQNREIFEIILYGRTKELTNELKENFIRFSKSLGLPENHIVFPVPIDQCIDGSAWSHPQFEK , no commentary.
Ans: 1.69e+06 M⁻¹ s⁻¹

Q: Return value of kon for input lipocalin mutein SEQ ID NO: 11 (designed binder, biotinylated by NHS chemistry for capture in SPR) QDSTSDLIPAPPLSKVPLQQNFQDNQFHGKWYVVGWAGNTLLREDKDPIKMQAIIYELKEDRSYNVTWVYFSEKKCNYHIETFVPGSQPGEFTLGTIKSYPGETPILVRVVSTNYNQHAMVFFKGVNQNREIFEIILYGRTKELTNELKENFIRFSKSLGLPENHIVFPVPIDQCIDGSAWSHPQFEK , no commentary.
Ans: 1.74e+06 M⁻¹ s⁻¹

Q: Return value of kon for input lipocalin mutein SEQ ID NO: 23 (designed binder, biotinylated by NHS chemistry for capture in SPR) QDSTSDLIPAPPLSKVPLQQNFQDNQFHGKWYVVGWAGNTLLREDKDPIKMQAKIYELKEDRSYNVTWVYFADKKCNYHIETFVPGSQPGEFTLGLIKSYPGETPILVRVVSTNYNQHAMVFFKGVNQNREIFEIILYGRTKELTNELKENFIRFSKSLGLPENHIVFPVPIDQCIDGSAWSHPQFEK , no commentary.
Ans: 1.74e+06 M⁻¹ s⁻¹

Q: Return value of kon for input lipocalin mutein SEQ ID NO: 28 (designed binder, biotinylated by NHS chemistry for capture in SPR) QDSTSDLIPAPPLSKVPLQQNFQDNQFHGKWYVVGWAGNTLLREDKDPIKMQAIIYELKEDRSYNVTWVYFSEKKCNYHIETFVPGSQPGEFTLGTIKSYPGETPILVRVMSTNYNQHAMVFFKGVNQNREIFEIILYGRTKELTNELKENFIRFSKSLGLPENHIVFPVPIDQCIDGSAWSHPQFEK , no commentary.
Ans: 1.72e+06 M⁻¹ s⁻¹

Q: Return value of kon for input lipocalin mutein SEQ ID NO: 22 (designed binder, biotinylated by NHS chemistry for capture in SPR) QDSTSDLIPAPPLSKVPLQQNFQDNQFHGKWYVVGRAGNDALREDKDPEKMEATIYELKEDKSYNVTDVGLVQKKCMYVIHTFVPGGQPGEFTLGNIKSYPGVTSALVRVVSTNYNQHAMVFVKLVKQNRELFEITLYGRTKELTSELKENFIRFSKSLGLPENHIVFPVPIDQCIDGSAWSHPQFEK , no commentary.
Ans: 1.6e+06 M⁻¹ s⁻¹

Q: Return value of kon for input lipocalin mutein SEQ ID NO: 10 (designed binder, biotinylated by NHS chemistry for capture in SPR) QDSTSDLIPAPPLSKVPLQQNFQDNQFHGKWYVVGWAGNTLLREDKNPTKMQATIYELKEDKSYNATWVYLSEKKCNYHIETSVPGSQPGEFTLGTTKSYPGETPILVRVVSTNYNQHAMVFFKGVSQNREIFEITLYGRTKELTSELKENFIRFSKSLGLPENHIVFPVPIDQCIDGSAWSHPQFEK , no commentary.
Ans: 1.08e+06 M⁻¹ s⁻¹
